Taken from ChEMBL document CHEMBL1137730.

Test system: Pichia kudriavzevii
Test: Antifungal activity against Candida krusei ATCC 6258 by macro-broth dilution method
Assay type: functional
Hi there, I'd appreciate the recorded MIC for every entry that follows.
Answers are plain numbers, in µg/mL.

{"structure-string": "N=C(N)c1ccc2[nH]c(-c3ccc4nc(-c5ccccc5Oc5ccc(Cl)cc5)[nH]c4c3)nc2c1", "measurement-type": "MIC", "reading": 50}

Dear reader, for each entry below, please note its MIC.
1. N=C(N)c1ccc2[nH]c(-c3ccc4nc(-c5cccc6ccccc56)[nH]c4c3)nc2c1
2. N=C(N)c1ccc2[nH]c(-c3ccc4nc(-c5ccc(OCc6ccccc6)cc5)[nH]c4c3)nc2c1
3. COc1cc(-c2nc3ccc(-c4nc5cc(C(=N)N)ccc5[nH]4)cc3[nH]2)ccc1OCc1ccccc1
4. N=C(N)c1ccc2[nH]c(-c3ccc4nc(-c5ccc6ccccc6c5)[nH]c4c3)nc2c1
5. N=C(N)c1ccc2[nH]c(-c3ccc4nc(-c5ccc(OCc6ccccc6)c(OCc6ccccc6)c5)[nH]c4c3)nc2c1
6. N=C(N)c1ccc2[nH]c(-c3ccc4nc(-c5cc(C(F)(F)F)cc(C(F)(F)F)c5)[nH]c4c3)nc2c1
7. N=C(N)c1ccc2[nH]c(-c3ccc4nc(-c5ccccc5F)[nH]c4c3)nc2c1
8. COc1cc(OC)cc(-c2nc3ccc(-c4nc5cc(C(=N)N)ccc5[nH]4)cc3[nH]2)c1

1. 12.5
2. 25
3. 50
4. 25
5. 50
6. 25
7. 12.5
8. 50

###

I'd appreciate it if you could supply MIC values for the items below.
Tested on: Pichia kudriavzevii
Test: Antifungal activity against Candida krusei ATCC 6258 by macro-broth dilution method
Assay type: functional
Kindly write the number and append the unit.

{"structure-string": "COc1ccc(-c2nc3ccc(-c4nc5cc(C(=N)N)ccc5[nH]4)cc3[nH]2)cc1OC", "study-system": "Pichia kudriavzevii", "reading": "25 µg/mL"}
{"structure-string": "COc1ccc(Oc2ccc(-c3nc4ccc(-c5nc6cc(C(=N)N)ccc6[nH]5)cc4[nH]3)cc2)cc1OC", "study-system": "Pichia kudriavzevii", "reading": "6.25 µg/mL"}
{"structure-string": "N=C(N)c1ccc2[nH]c(-c3ccc4nc(-c5ccc(F)c(F)c5)[nH]c4c3)nc2c1", "study-system": "Pichia kudriavzevii", "reading": "25 µg/mL"}
{"structure-string": "CC(C)(C)c1cccc(-c2nc3ccc(-c4nc5cc(C(=N)N)ccc5[nH]4)cc3[nH]2)c1O", "study-system": "Pichia kudriavzevii", "reading": "6.25 µg/mL"}
{"structure-string": "N=C(N)c1ccc2[nH]c(-c3ccc4nc(-c5ccc(Oc6ccc(Cl)cc6)cc5)[nH]c4c3)nc2c1", "study-system": "Pichia kudriavzevii", "reading": "25 µg/mL"}

Next:
Request the reported MIC associated with N=C(N)c1ccc2[nH]c(-c3ccc4nc(-c5ccc(F)cc5)[nH]c4c3)nc2c1
12.5 µg/mL
